- Study target: green fluorescent protein (GFP) variant GFP25, tag MEFHRPMRH, SEQ ID NO: 8
- Method summary: Cu(II)-VBIDA affinity for the tag (Table 1)
- Measurement conditions: r^2 ≈ 0.98
Property: Kd
Your answer should be a number followed by the unit of measure.

Request: // lookup Kd for C=Cc1ccc(CN(CC(=O)O)CC(=O)O)cc1.[Cu+2] [Cu(II)-VBIDA, N-(4-vinyl)-benzyl iminodiacetic acid]
Result: 140 µM

====

- Study target: green fluorescent protein (GFP) variant GFP12, tag MEFHSVGLH, SEQ ID NO: 6
- Method summary: Cu(II)-VBIDA affinity for the tag (Table 1)
- Measurement conditions: r^2 ≈ 0.98
Property: Kd (µM)
Unit µM implied. Number only.

Request: Entry C=Cc1ccc(CN(CC(=O)O)CC(=O)O)cc1.[Cu+2] , system green fluorescent protein (GFP) variant GFP12, tag MEFHSVGLH, SEQ ID NO: 6: what Kd was measured?
Result: 200

====

- Study target: green fluorescent protein (GFP) variant GFP30, tag MEFHAHHLH, SEQ ID NO: 13
- Method summary: Cu(II)-VBIDA affinity for the tag (Table 1)
- Measurement conditions: r^2 ≈ 0.98
Property: Kd
Your answer should be a number followed by the unit of measure.

Request: // lookup Kd for C=Cc1ccc(CN(CC(=O)O)CC(=O)O)cc1.[Cu+2] [Cu(II)-VBIDA, N-(4-vinyl)-benzyl iminodiacetic acid]
Result: 90 µM

====

- Study target: green fluorescent protein (GFP) variant GFP2, tag MEFHSVGMH, SEQ ID NO: 3
- Method summary: Cu(II)-VBIDA affinity for the tag (Table 1)
- Format: binding
- Measurement conditions: r^2 ≈ 0.98
- Text: In this figure the kD data is given in millimolar not micromolar units.
Property: Kd (µM)
Unit µM implied. Number only.

Request: // lookup Kd for C=Cc1ccc(CN(CC(=O)O)CC(=O)O)cc1.[Cu+2]
Result: 1200

====

- Study target: green fluorescent protein (GFP) variant GFP27, tag MEFHWVARH, SEQ ID NO: 10
- Method summary: Cu(II)-VBIDA affinity for the tag (Table 1)
- Measurement conditions: r^2 ≈ 0.98
- Excerpt: In this figure the kD data is given in millimolar not micromolar units. These values are suitably low for such tags to be used in a separation process with binding of target at high enough affinity to allow for ease of washing and recovery.
Property: pKd
// scale note: pKd = -log10(conc_M); give the bare number

Request: // lookup pKd for C=Cc1ccc(CN(CC(=O)O)CC(=O)O)cc1.[Cu+2]
Result: 3.92
